- Tested on: SF-295 CNS
- test.summary: NCI-60 one-dose screen, 48 h (100 = growth as untreated, 0 = no growth, -100 = all killed)
- measurement.setup: 10 µM unless noted
The panel holds about 83,000 compounds, 20% with a hit somewhere; the sample as a whole holds those more often.
Overview of reported growth across a group of compounds:
observable: growth (%)

[[record]]
compound = "CC1=NC2=Nn3c(c4cnn(-c5ccccc5)c4n/c3=N\\N)NN2C(c2ccccc2)=C1"
output_unit = "%"
result_number = 90.7

[[record]]
compound = "NC(=O)c1cccc(-n2ccc3cc(NC(=O)c4ccc(N5CCOCC5)c(C(F)(F)F)c4)ccc32)n1"
output_unit = "%"
result_number = -52.1

[[record]]
compound = "CSc1nc(N)c(NS(=O)(=O)c2ccc(C(C)=O)cc2)c(=O)[nH]1"
output_unit = "%"
result_number = 97.3

[[record]]
compound = "c1ccc(-c2oc(-c3ccccc3)c(CN3CCCCC3)c2CN2CCCCC2)cc1"
output_unit = "%"
result_number = 37.3

[[record]]
compound = "Cn1ccnc1C(=O)/C=C/c1ccc(C(=O)Nc2ccc(Cl)cc2)cc1"
output_unit = "%"
result_number = 27.3

[[record]]
compound = "COC12C=C/C(=C(/C(=O)OCc3ccncc3)C(=O)CCCCCCCCC3(OC)C=C/C(=C(/C(=O)OCc4ccncc4)C(=O)CCCCCCCC1)O3)O2"
output_unit = "%"
result_number = -23.8

[[record]]
compound = "CCOCCNC1=C(Cl)C(=O)c2ccccc2C1=O"
output_unit = "%"
result_number = 95.1

[[record]]
compound = "CCCCNC(=O)Oc1ccc(/C(=C(/C)Cc2ccc(OC)cc2)c2ccc(OCCN(CC)CC)cc2)cc1"
output_unit = "%"
result_number = 86.6

[[record]]
compound = "CCSc1oc(-c2ccccc2)nc1[P+](c1ccccc1)(c1ccccc1)c1ccccc1"
output_unit = "%"
result_number = -4.41

[[record]]
compound = "COC(=O)/C=C1/SC(=Nc2ccc(C(F)(F)F)cc2)N(CCc2c[nH]c3ccc(O)cc23)C1=O"
output_unit = "%"
result_number = 14.2

[[record]]
compound = "COc1ccc(-c2nn(-c3cccc(Cl)c3)cc2-c2cc(-c3ccc(Br)cc3)nc(N)n2)cc1"
output_unit = "%"
result_number = 99.1

[[record]]
compound = "C=C1C(=O)O[C@H]2[C@H]1CC/C(COC(=O)C(=O)c1cn(C)c3ccc(Cl)cc13)=C\\CC[C@@]1(C)O[C@@H]21"
output_unit = "%"
result_number = -65.4

[[record]]
compound = "Cc1ccc(C(=O)c2ccc(CC(=O)N/N=C/c3ccccc3O)n2C)cc1"
output_unit = "%"
result_number = 97.7

[[record]]
compound = "N=C(N)c1ccc(-c2ccc(-c3ccc(Cl)c(Cl)c3)s2)nc1"
output_unit = "%"
result_number = 0.36

[[record]]
compound = "CCOC(=O)C1=C(C)NC(=O)NC1c1c(Cl)n(CCCl)c2ccccc12 (centres undefined)"
output_unit = "%"
result_number = 95.3

[[record]]
compound = "COC1=CC(c2ccc[nH]2)=N/C1=C\\c1[nH]c(C)c(CC(=O)NCc2ccccc2)c1C"
output_unit = "%"
result_number = -55.5

[[record]]
compound = "c1ccc(Cn2cc3c(c2)-c2oncc2CC3)cc1"
output_unit = "%"
result_number = 20.3

[[record]]
compound = "O=C(Nc1nc2ccccc2s1)c1ccc(F)cc1"
output_unit = "%"
result_number = 103

[[record]]
compound = "CCOC(=O)c1c(NC(=O)c2cccc(C(F)(F)F)c2)sc2c(CN(C)C)c(O)ccc12"
output_unit = "%"
result_number = 96.2

